- SYSTEM_NAME: T1, JUN bZIP construct, C-terminally fluoresceinated (human, UniProt P05412 252-315, fluorescein at the C-terminus)
- T1 construct: source: previously described, donated by A.W. Reinke [18]
- PROTOCOL_DESCRIPTION: FRET or BRET; direct-binding FRET at 37°C; 10 nM fluorescein-labelled bZIP (donor), rhodamine-labelled design (acceptor) titrated 0 to 1 μM; 150 mM KCl, 50 mM potassium phosphate pH 7.4, 0.1% Tween-20, 0.1% BSA
- CONDITION: both partners purified
Where no end group is shown, it is not given here.
MEASUREMENT_LABEL: Kd

Query string: Param item = JUN-d1, rhodamine-labelled at the C-terminus (designed binder, solubility linker after the His tag; added at the C-terminus for labelling; source: E. coli RP3098, purified (Ni-NTA under denaturing conditions, reverse-phase HPLC)) GESKEYKKGSGSSIAATLEKEEANLEKMNKKLAAEIESLLKEKDKLESVLNYHEGC(Rhodamine Red C2‑maleimide) ; retrieve measured Kd.
Result string: 5.8 nM
